All figures here come from patent US20180319865A1.

- system name: mutant integrin CD11bE320A/CD18 (Homo sapiens, UniProt P11215, E336A)
- Construct: expressed in transfected cells; host or cells: K562 (ATCC)
- Sequence (P11215 17-1152 E336A): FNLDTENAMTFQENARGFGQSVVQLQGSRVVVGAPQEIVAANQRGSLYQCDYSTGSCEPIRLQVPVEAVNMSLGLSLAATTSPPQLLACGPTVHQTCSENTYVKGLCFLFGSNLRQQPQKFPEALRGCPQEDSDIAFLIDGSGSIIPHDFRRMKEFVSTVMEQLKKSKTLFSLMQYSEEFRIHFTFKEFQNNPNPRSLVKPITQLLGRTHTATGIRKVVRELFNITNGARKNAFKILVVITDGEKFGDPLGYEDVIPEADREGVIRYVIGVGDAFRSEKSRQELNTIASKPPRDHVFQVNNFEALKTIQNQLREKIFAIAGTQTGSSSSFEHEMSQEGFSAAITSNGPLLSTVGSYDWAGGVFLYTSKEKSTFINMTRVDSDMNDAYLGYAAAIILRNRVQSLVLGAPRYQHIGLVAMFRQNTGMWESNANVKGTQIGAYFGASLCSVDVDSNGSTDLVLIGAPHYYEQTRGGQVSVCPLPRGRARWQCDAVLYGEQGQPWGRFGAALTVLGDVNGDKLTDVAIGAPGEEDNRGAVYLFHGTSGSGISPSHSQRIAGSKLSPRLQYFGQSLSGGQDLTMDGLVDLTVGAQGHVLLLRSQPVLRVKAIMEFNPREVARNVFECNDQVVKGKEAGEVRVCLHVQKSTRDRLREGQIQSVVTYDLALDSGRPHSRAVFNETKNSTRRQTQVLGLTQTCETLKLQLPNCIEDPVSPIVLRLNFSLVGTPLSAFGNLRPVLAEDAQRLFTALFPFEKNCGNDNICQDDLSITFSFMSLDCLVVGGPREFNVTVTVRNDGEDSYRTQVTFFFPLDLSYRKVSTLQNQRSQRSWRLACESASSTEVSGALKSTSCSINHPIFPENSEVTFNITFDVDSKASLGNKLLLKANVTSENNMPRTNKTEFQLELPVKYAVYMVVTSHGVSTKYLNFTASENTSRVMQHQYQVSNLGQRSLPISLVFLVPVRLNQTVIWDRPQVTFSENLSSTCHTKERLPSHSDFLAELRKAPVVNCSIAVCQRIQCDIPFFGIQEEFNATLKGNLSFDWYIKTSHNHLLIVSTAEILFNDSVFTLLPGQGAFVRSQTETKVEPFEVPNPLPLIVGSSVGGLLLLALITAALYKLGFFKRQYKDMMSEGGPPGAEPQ
- Sequence (P05107 23-769 partner): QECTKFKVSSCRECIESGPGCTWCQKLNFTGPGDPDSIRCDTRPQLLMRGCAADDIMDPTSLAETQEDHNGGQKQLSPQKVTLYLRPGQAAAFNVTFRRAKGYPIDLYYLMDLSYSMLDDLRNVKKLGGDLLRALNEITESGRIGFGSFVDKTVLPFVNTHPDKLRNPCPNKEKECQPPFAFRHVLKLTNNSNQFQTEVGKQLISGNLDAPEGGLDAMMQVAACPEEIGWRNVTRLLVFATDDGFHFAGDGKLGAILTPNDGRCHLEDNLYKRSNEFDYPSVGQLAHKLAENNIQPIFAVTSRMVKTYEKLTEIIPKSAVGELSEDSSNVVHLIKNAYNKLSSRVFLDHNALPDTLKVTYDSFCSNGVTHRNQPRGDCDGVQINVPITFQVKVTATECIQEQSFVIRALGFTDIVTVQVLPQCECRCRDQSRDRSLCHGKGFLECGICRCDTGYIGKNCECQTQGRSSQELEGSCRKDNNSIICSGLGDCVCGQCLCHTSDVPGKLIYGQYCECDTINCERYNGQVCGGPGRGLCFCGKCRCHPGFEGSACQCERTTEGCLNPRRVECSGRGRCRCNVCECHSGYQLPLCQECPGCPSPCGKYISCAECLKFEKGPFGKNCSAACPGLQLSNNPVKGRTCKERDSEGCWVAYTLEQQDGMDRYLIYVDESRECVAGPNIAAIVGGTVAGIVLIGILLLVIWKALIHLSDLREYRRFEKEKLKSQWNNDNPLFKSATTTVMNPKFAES
- experiment summary: HTS cell adhesion assay, K562 E320A cells on immobilized fibrinogen
- Format: cell-based
- test context: Table 3, adhesion to fibrinogen, five point dose-response
Items are presented alongside their recorded EC50.
Give just the numeric value; µM need not be written.

Known results for compounds:
compound=CCn1c(=NC(=O)c2ccc(N3C(=O)CCC3=O)cc2)sc2c(OC)ccc(OC)c21 assay_readout=EC50 readout_number=5.05
compound=O=C(Nc1ccc2nc(-c3ccco3)c(-c3ccco3)nc2c1)N1CCCCCC1 assay_readout=EC50 readout_number=4.68
compound=C=CCOC(=O)c1cc(-c2ccc(/C=C3\C(=O)NC(=O)C(C#N)=C3C)o2)ccc1Cl assay_readout=EC50 readout_number=2.53
compound=Cn1c(SCC(=O)Nc2ccc3c(c2)oc2ccccc23)nnc1-c1ccccc1 assay_readout=EC50 readout_number=38.2

Could you share which EC50 value was measured for Cc1ccc2nc(-c3ccc(NC(=O)CCS(=O)(=O)c4ccccc4)cc3)sc2c1 ? 6.72

Sample O=C(Oc1ccc2c(=O)c(Oc3ccc4ccccc4c3)coc2c1)c1cncc(Br)c1 — what was its EC50? 9.84

Name the reported EC50 value associated with the compound CCC(=O)Nc1ccc(C(=O)CSc2nc3ccc(C)cc3[nH]2)cc1 10.3

Returns the measured EC50 for the input compound. Input: CCC(=O)Nc1c(C#N)c2nc3ccccc3nc2n1C1CCCCC1 0.209

Report EC50 for CCN(CC)C(=O)c1sc(NC(=O)c2cc(-c3ccc(C)s3)nc3ccccc23)c(C(=O)OC)c1C please. 9.94

For the compound shown here, COc1ccccc1CNC(=O)c1ccc2nc3[nH]c4ccccc4c3nc2c1 , give the reported EC50. 9.05

Entry under review: CCOc1ccc(/C=c2\sc3nc(-c4ccco4)nn3c2=O)cc1OCC . Reported EC50? 6.49

Field request: EC50 | item: O=c1cc(CN2CCN(c3cccc(Cl)c3)CC2)c2cc(O)c(-c3ccccc3)cc2o1 16.5

Please give the measured EC50 for this compound: Cc1ccnc(N/C=C(\C#N)c2nc(-c3cccc(Br)c3)cs2)c1 8.01
